I'd appreciate it if you could supply MIC of antibiotic in combination with Chlopam values for the items below.
Tested on: Staphylococcus aureus (ATCC 29213)
Assay: Checkerboard combination / MIC assay with S. aureus ATCC 29213
Type: cell-based
Conditions: Chlopam 0.25 μg/mL; S. aureus ATCC 29213
One number for each entry, in µg/mL.

// solved cases for MIC of antibiotic in combination with Chlopam follow
molecule	tested-target	result-unit	result-value
CO/N=C(\C(=O)N[C@@H]1C(=O)N2C(C(=O)[O-])=C(C[N+]3(C)CCCC3)CS[C@H]12)c1csc(N)n1 [Cefepime]	Staphylococcus aureus (ATCC 29213)	µg/mL	2
CN[C@H](CC(C)C)C(=O)N[C@H]1C(=O)N[C@@H](CC(N)=O)C(=O)N[C@H]2C(=O)N[C@H]3C(=O)N[C@H](C(=O)N[C@H](C(=O)O)c4cc(O)cc(O)c4-c4cc3ccc4O)[C@H](O)c3ccc(c(Cl)c3)Oc3cc2cc(c3O[C@@H]2O[C@H](CO)[C@@H](O)[C@H](O)[C@H]2O[C@H]2C[C@](C)(N)[C@H](O)[C@H](C)O2)Oc2ccc(cc2Cl)[C@H]1O	Staphylococcus aureus (ATCC 29213)	µg/mL	0.5
CCCCCCCCCC(=O)N[C@@H](Cc1c[nH]c2ccccc12)C(=O)N[C@H](CC(N)=O)C(=O)N[C@@H](CC(=O)O)C(=O)N[C@@H]1C(=O)NCC(=O)N[C@@H](CCCN)C(=O)N[C@@H](CC(=O)O)C(=O)N[C@H](C)C(=O)N[C@@H](CC(=O)O)C(=O)NCC(=O)N[C@H](CO)C(=O)N[C@@H]([C@H](C)CC(=O)O)C(=O)N[C@@H](CC(=O)c2ccccc2N)C(=O)O[C@@H]1C	Staphylococcus aureus (ATCC 29213)	µg/mL	0.25
C/C(=C\C(=O)OCCCCCCCCC(=O)O)C[C@@H]1OC[C@H](C[C@@H]2O[C@H]2[C@@H](C)[C@H](C)O)[C@@H](O)[C@H]1O	Staphylococcus aureus (ATCC 29213)	µg/mL	0.25
Cc1onc(-c2ccccc2)c1C(=O)N[C@@H]1C(=O)N2[C@@H]1SC(C)(C)[C@@H]2C(=O)O	Staphylococcus aureus (ATCC 29213)	µg/mL	0.125

Now turn to the next molecule.
Q: State its MIC of antibiotic in combination with Chlopam for this molecule: `CC(=O)NC[C@H]1CN(c2ccc(N3CCOCC3)c(F)c2)C(=O)O1`
A: 0.5
